assayed_system: human GPBAR1 receptor (Homo sapiens)
Sequence (Q8TDU6 1-330): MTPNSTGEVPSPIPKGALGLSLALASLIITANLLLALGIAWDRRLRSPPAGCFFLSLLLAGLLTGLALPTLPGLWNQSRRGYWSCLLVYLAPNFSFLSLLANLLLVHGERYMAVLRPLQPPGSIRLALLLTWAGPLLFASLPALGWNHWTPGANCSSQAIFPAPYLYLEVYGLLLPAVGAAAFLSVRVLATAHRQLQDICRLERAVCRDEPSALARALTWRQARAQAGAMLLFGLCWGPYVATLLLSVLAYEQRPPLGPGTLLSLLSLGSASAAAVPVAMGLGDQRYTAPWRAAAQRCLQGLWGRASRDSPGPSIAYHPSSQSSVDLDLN
procedure_details: functional cAMP assay in CHO-dhfr(minus) cells expressing human GPBAR1 receptors
condition_summary: CHO-dhfr(minus) cells expressing human GPBAR1, compounds incubated 30 min at 30° C.
measured_attribute: log10 EC50 (log10 of the value in nM)

smiles_code	assayed_system	log10 EC50
COc1cc(F)ccc1-c1ccnnc1N(C)C(=O)c1cc(C(F)(F)F)cc(S(C)(=O)=O)c1	human GPBAR1 receptor (Homo sapiens)	1.88
COc1cc(F)ccc1-c1cnncc1N(C)C(=O)c1cc(C(F)(F)F)cc(S(C)(=O)=O)c1	human GPBAR1 receptor (Homo sapiens)	2.36
Cc1ccccc1-c1cc(Cl)nnc1N(C)C(=O)c1cc(C(F)(F)F)cc(S(C)(=O)=O)c1	human GPBAR1 receptor (Homo sapiens)	3.34
Cc1ccccc1-c1ncncc1N(C)C(=O)c1cc(C(F)(F)F)cc(C(F)(F)F)c1	human GPBAR1 receptor (Homo sapiens)	3.17
Cc1ccccc1-c1cnncc1N(C)C(=O)c1cc(C(F)(F)F)cc(S(=O)(=O)CCCC(=O)OC(C)(C)C)c1	human GPBAR1 receptor (Homo sapiens)	2.89
COc1ncccc1-c1cc(Cl)nnc1N(C)C(=O)c1cc(C(F)(F)F)cc(S(C)(=O)=O)c1	human GPBAR1 receptor (Homo sapiens)	3.18
CN(C(=O)c1cc(C(F)(F)F)cc(S(=O)(=O)N2CCOCC2)c1)c1nnc(Cl)cc1-c1ccccc1	human GPBAR1 receptor (Homo sapiens)	2.63
CN(C(=O)c1cc(C(F)(F)F)cc(S(C)(=O)=O)c1)c1nnc(Cl)cc1-c1cccnc1OCC(F)(F)F	human GPBAR1 receptor (Homo sapiens)	3.38
CN(C(=O)c1cc(C(F)(F)F)cc(C(F)(F)F)c1)c1nnc(Cl)cc1-c1ccccc1	human GPBAR1 receptor (Homo sapiens)	2.48
CN(C(=O)c1cc(C(F)(F)F)cc(S(C)(=O)=O)c1)c1nnc(Cl)cc1-c1ccccc1	human GPBAR1 receptor (Homo sapiens)	3.43
COc1cc(F)ccc1-c1cc(C)nnc1N(C)C(=O)c1cc(C(F)(F)F)cc(S(C)(=O)=O)c1	human GPBAR1 receptor (Homo sapiens)	2.25
Cc1ccccc1-c1cnncc1N(C)C(=O)c1cc(Cl)cc(S(C)(=O)=O)c1	human GPBAR1 receptor (Homo sapiens)	2.82
COc1cc(F)ccc1-c1cc(Cl)nnc1N(C)C(=O)c1cc(C(F)(F)F)cc(S(C)(=O)=O)c1	human GPBAR1 receptor (Homo sapiens)	2.22

====

Recorded EC50 for the following molecules
assayed_system: human GPBAR1 receptor (Homo sapiens)
procedure_details: functional cAMP assay in CHO-dhfr(minus) cells expressing human GPBAR1 receptors
condition_summary: CHO-dhfr(minus) cells expressing human GPBAR1, compounds incubated 30 min at 30° C.
measured_attribute: EC50 (nM)

smiles_code	readout_number
Cc1ccccc1-c1cnncc1N(C)C(=O)c1cc(C(F)(F)F)cc(S(C)(=O)=O)c1	429
Cc1cc(-c2cccnc2OCC(F)(F)F)c(N(C)C(=O)c2cc(C(F)(F)F)cc(S(C)(=O)=O)c2)nn1	3910
CN(C(=O)c1cc(C(F)(F)F)cc(S(C)(=O)=O)c1)c1nnccc1-c1cccnc1OCC(F)(F)F	160
Cc1ccccc1-c1cc(Cl)nnc1N(C)C(=O)c1cc(C(F)(F)F)cc(S(=O)(=O)CCCC(=O)O)c1	8180

Numbers sourced from patent US8748434B2.
